Answer each item with its documented pKi.
target: Cannabinoid receptor 2 (Homo sapiens); assay: Displacement of [3H]-WIN55212-2 from human CB2 receptor transfected in CHO cells membrane incubated for 90 mins; type: cell membranes
Sequence (P34972 whole entry): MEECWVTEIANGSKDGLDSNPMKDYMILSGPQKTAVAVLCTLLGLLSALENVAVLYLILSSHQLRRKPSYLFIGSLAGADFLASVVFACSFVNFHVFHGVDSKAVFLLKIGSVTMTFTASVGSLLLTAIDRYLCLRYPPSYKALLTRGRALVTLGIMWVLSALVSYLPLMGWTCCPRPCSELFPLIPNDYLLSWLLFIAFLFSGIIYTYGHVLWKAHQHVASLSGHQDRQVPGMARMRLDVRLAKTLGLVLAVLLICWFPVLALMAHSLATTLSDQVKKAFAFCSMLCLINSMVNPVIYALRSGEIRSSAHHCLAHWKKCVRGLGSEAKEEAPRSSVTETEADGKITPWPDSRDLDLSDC
pKi: −log10 of the molar value.

Request: May I ask what pKi has been recorded for C[C@H]1CC[C@@H](NC(=O)c2cc3cc(-c4ccco4)cnc3n(CCCF)c2=O)CC1 ?
Response: < 5.00

Request: What do we get for C[C@H]1CC[C@@H](NC(=O)c2cc3cc(-c4ccco4)cnc3n(Cc3ccccc3F)c2=O)CC1 ?
Response: < 5.00

Request: What do we get for C[C@H]1CC[C@@H](NC(=O)c2cc3cc(-c4ccco4)cnc3n(Cc3ccc(F)cc3)c2=O)CC1 ?
Response: 6.04

Request: What do we get for C[C@H]1CC[C@@H](NC(=O)c2cc3cc(-c4ccco4)cnc3n(Cc3cccc(F)c3)c2=O)CC1 ?
Response: < 5.00

Request: What do we get for C[C@H]1CC[C@@H](NC(=O)c2cc3cccnc3n(CCCCF)c2=O)CC1 ?
Response: < 6.00

Request: What do we get for C[C@H]1CC[C@@H](NC(=O)c2cc3cccnc3n(CCOCCF)c2=O)CC1 ?
Response: < 5.00

Request: What do we get for CC1CCC(NC(=O)c2cc3cc(Br)cnc3n(Cc3ccc(F)cc3)c2=O)CC1 (mixture of isomers) ?
Response: < 6.81

Request: What do we get for C[C@H]1CC[C@@H](NC(=O)c2cc3cc(-c4ccco4)cnc3n(CCCCF)c2=O)CC1 ?
Response: < 5.00

Request: What do we get for O=C(Nc1ccc(F)nc1)c1cc2cccnc2n(CCCCF)c1=O ?
Response: < 5.00
